In this section we review reported pIC50 values for a set of compounds.
target: hNAMPT protein (Homo sapiens (Human)); experiment: NAMPT enzyme assay (TR-FRET/HTRF, BodiPY ligand, anti 6His-Tb); assay type: binding; settings: NAMPT IC50 range class; read-out: IC50
Sequence (P43490 whole entry): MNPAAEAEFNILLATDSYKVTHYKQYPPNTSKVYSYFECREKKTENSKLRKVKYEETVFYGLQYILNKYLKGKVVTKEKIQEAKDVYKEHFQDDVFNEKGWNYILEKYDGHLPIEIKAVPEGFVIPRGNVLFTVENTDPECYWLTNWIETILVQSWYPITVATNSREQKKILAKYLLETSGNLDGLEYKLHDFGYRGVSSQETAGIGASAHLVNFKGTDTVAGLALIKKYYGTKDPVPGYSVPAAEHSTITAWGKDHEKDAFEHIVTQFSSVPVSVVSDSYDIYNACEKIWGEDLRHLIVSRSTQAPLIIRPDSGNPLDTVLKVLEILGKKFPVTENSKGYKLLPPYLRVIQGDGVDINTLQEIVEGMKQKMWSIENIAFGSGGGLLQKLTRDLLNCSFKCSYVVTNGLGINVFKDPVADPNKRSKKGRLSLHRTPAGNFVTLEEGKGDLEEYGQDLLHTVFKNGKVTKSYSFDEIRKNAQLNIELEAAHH
pIC50: −log10 of the molar value.

Before answering, review these 10 worked examples.
compound: O=C(NCCCc1ncc[nH]1)c1ccc2nc(N3CCOCC3)c(-c3ccc(F)cc3)nc2c1 [Compound I-39]
pIC50: > 7.00
--
compound: O=C(NCCn1cccn1)c1ccc2nc(-c3ccc(F)cc3)c(-c3ccc(F)cc3)nc2c1 [Compound I-83]
pIC50: 5.00 to 5.70
--
compound: NCc1nc2ccc(C(=O)NCCCn3ccnc3)cc2nc1-c1ccccc1 [Compound I-10]
pIC50: 5.00 to 5.70
--
compound: COc1ccc(Cl)c(-c2nc3cc(C(=O)NCCCc4ncc[nH]4)ccc3nc2-c2ccc(F)cc2)c1 [Compound I-354]
pIC50: > 7.00
--
compound: Cn1ccnc1CCNC(=O)c1ccc2nc(-c3ccc(F)cc3)c(-c3ccc(F)cc3)nc2c1 [Compound I-151]
pIC50: 6.30 to 7.00
--
compound: O=C(NCCCc1ncc[nH]1)c1ccc2nc(N3CCC(N4CCOCC4)CC3)c(-c3ccc(Cl)cc3)nc2c1 [Compound I-255]
pIC50: > 7.00
--
compound: O=C(NCCCc1ncc[nH]1)c1ccc2nc(N3CCCC3)c(-c3ccc(Cl)cc3)nc2c1 [Compound I-116]
pIC50: > 7.00
--
compound: O=C(NCCCn1ccnc1)c1ccc2nc(-c3ccccc3)c(-c3cccnc3)nc2c1 [Compound I-176]
pIC50: 5.70 to 6.00
--
compound: CC(C)(C)OC(=O)NC1CCN(C2CCN(c3nc4ccc(C(=O)NCCCn5ccnc5)cc4nc3-c3ccccc3)CC2)CC1 [Compound I-74]
pIC50: > 7.00
--
compound: O=C1CN(c2nc3ccc(C(=O)NCCCn4ccnc4)cc3nc2-c2ccccc2)CN1 [Compound I-7]
pIC50: 5.00 to 5.70

Input: I would be grateful if you could share the reported pIC50 for CS(=O)(=O)Nc1cccc(-c2nc3ccc(C(=O)NCCCn4ccnc4)cc3nc2-c2ccccc2)c1 [Compound I-290] .
Output: 6.30 to 7.00

Input: Would you kindly share the measured pIC50 for O=C(NCc1cn2cccnc2n1)c1ccc2nc(N3CCC(O)CC3)c(-c3ccc(F)cc3)nc2c1 [Compound I-282] ?
Output: > 7.00

Input: State the recorded pIC50 for this entry: COc1cccc(-c2nc3ccc(C(=O)NCCc4cccnc4)cc3nc2-c2cccc(OC)c2)c1 [Compound I-181]
Output: > 7.00

Input: # pIC50 lookup, item Cc1cc(-c2nc3cc(C(=O)NCCCc4ncc[nH]4)ccc3nc2-c2ccc(F)cc2)cnc1Cl [Compound I-309]
Output: 6.30 to 7.00

====

# reported inhibition at 1 µM; entries follow
target: hNAMPT protein (Homo sapiens (Human)); experiment: NAMPT enzyme assay (TR-FRET/HTRF, BodiPY ligand, anti 6His-Tb); format: binding; conditions: read-out: Percent Inhibition
Could you give me the number in %? Just the number is fine.

compound: O=C(NCCCc1ncc[nH]1)c1ccc2nc(N3CCC4(CC3)COC4)c(-c3ccc(F)cc3)nc2c1 [Compound I-277]
assayed.target: hNAMPT protein (Homo sapiens (Human))
observable: inhibition at 1 µM
measured.result: 99
//
compound: CC(C)(C)OC(=O)NCc1cccc(-c2nc3cc(C(=O)NCCCn4ccnc4)ccc3nc2-c2ccccc2)c1 [Compound I-85]
assayed.target: hNAMPT protein (Homo sapiens (Human))
observable: inhibition at 1 µM
measured.result: 25
//
compound: O=C(NCCCn1ccnc1)c1ccc2nc(Oc3ccccc3)c(-c3ccccc3)nc2c1 [Compound I-80]
assayed.target: hNAMPT protein (Homo sapiens (Human))
observable: inhibition at 1 µM
measured.result: 65
//
compound: CC(C)(C)OC(=O)NCc1ccc(-c2nc3ccc(C(=O)NCCCn4ccnc4)cc3nc2-c2ccccc2)cc1 [Compound I-148]
assayed.target: hNAMPT protein (Homo sapiens (Human))
observable: inhibition at 1 µM
measured.result: 85
//
compound: O=C(NCc1ccc2[nH]ncc2c1)c1ccc2nc(N3CCCCC3)c(-c3ccc(F)cc3)nc2c1 [Compound I-220]
assayed.target: hNAMPT protein (Homo sapiens (Human))
observable: inhibition at 1 µM
measured.result: 68

// next item, inhibition at 1 µM requested
Input: Given the entry O=C(NCCCc1ccccn1)c1ccc2nc(-c3ccc(F)cc3)c(-c3ccc(F)cc3)nc2c1 [Compound I-180] , report its measured inhibition at 1 µM.
Output: 27
